B1: Caulobacter ParB omega fusion; a variant is named by its letters at X, in order, B8GW30 (parent)
chain: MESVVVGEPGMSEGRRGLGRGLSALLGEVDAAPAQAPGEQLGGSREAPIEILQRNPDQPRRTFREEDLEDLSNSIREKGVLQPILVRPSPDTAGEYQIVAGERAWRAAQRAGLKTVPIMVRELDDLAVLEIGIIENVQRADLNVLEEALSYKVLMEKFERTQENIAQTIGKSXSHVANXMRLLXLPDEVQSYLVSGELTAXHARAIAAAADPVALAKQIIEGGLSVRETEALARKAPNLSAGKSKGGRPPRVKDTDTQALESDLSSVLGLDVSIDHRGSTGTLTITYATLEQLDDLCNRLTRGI

# Variants of: B1
# protocol-details: one-hybrid fitness for binding parS DNA (scaled: cognate 1, non-cognate 0); higher = stronger binding
# test-parameters: with parS DNA site
Over roughly 81,000 sequences, “one-hybrid fitness for binding parS DNA” has its median near -0.17; the highest 2% begin near 0.51. What follows is part of a selection rich in the highest values, with near analogues and random picks from the rest.
property-label: one-hybrid fitness for binding parS DNA

Some solved entries appear below for comparison.
>>> result("VVNG")
"≤ 0.2"
>>> result("NNLY")
"≤ 0.2"
>>> result("GSFC")
"≤ 0.2"
>>> result("RYMN")
0.395
>>> result("RWDL")
"≤ 0.2"

Proceeding to the next variant to report its one-hybrid fitness for binding parS DNA.
-- ask Can you share its one-hybrid fitness for binding parS DNA? I mean this variant: FMSQ
-- reply 0.554

The reported numbers originate from a collection of fitness landscapes (doi:10.1016/j.celrep.2020.107928).
